The compounds listed here are annotated with their TGI.
Tested on: HT29 colon
Test: NCI tumour cell line growth inhibition, 48 h

{"compound": "c1cc(-c2ccc(-c3ccc(-c4ccc(-c5ccncc5)o4)cc3)o2)ccn1", "TGI": "44.7 µM"}
{"compound": "O=C(CN(C(=O)OC12CC3CC(CC(C3)C1)C2)C(=O)OC12CC3CC(CC(C3)C1)C2)Oc1ccc([N+](=O)[O-])cc1", "TGI": "> 100 µM"}
{"compound": "COc1cc(/C=C(\\NC(=O)c2ccccc2)c2nc3ccc4c(c3[nH]2)C(=O)c2ccccc2C4=O)cc(OC)c1OC", "TGI": "> 100 µM"}
{"compound": "COc1cc(-c2nccc3cc(OC)c(OC)cc23)ccc1O", "TGI": "> 100 µM"}
{"compound": "O=C(O)/C(Cl)=C(\\Cl)C(=O)c1ccccc1", "TGI": "> 100 µM"}
{"compound": "N#Cc1c(NCc2ccccc2)nc(NCc2ccccc2)c(C#N)c1-c1ccc(O)cc1", "TGI": "> 100 µM"}
{"compound": "COc1cccc(/C=N/NC(=O)CSCC(=O)N/N=C/c2cccc(OC)c2OC)c1OC", "TGI": "> 100 µM"}
{"compound": "COC(=O)C1CCC(=O)N1C(c1cc(OC)c(OC)c(OC)c1)c1cc(OC)c(OC)c(OC)c1 (centres undefined)", "TGI": "> 100 µM"}
{"compound": "CC1(C)[C@@H]2CC[C@]1(C)[C@H](OC(=O)/C=C/c1ccccc1)C2", "TGI": "33.7 µM"}

====

Test system: OVCAR-4 ovarian
Test: NCI tumour cell line growth inhibition, 48 h
The compounds listed here are annotated with their TGI.
parameter.measured: TGI

{"compound": "COc1cccc(C23CCCC(C2)NCC3Br)c1OC (stereo unspecified)", "parameter.measured": "TGI", "experimental.value": "> 100 µM"}
{"compound": "CN(C)CCN1C(=O)c2cccc3cc([N+](=O)[O-])cc(c23)C1=O", "parameter.measured": "TGI", "experimental.value": "6.37 µM"}
{"compound": "COc1cc2c(c(OC)c1OC)-c1ccc(SC)c(=O)cc1C(CC(=O)Oc1cccc([N+](=O)[O-])c1)C2 (stereo unspecified)", "parameter.measured": "TGI", "experimental.value": "> 100 µM"}
{"compound": "N#CC12CCC1C1CCCCC12N1CCSCC1 (stereo unspecified)", "parameter.measured": "TGI", "experimental.value": "> 10 µM"}
{"compound": "CCC(=O)N1C(=O)OCC1C(C)C (stereo unspecified)", "parameter.measured": "TGI", "experimental.value": "> 100 µM"}
{"compound": "C1CSCCSCCCSC2CCCCC2SC1 (stereo unspecified)", "parameter.measured": "TGI", "experimental.value": "> 100 µM"}
{"compound": "CCNC(=O)c1cc(Cl)ccc1NC(=O)C12CC3CC(CC(C3)C1)C2", "parameter.measured": "TGI", "experimental.value": "> 100 µM"}
{"compound": "CN(CCCCCl)P(=O)(OCCS(=O)(=O)CC(NC(=O)CCC(N)C(=O)O)C(=O)NC(C(=O)O)c1ccccc1)OCC1OC(n2ccc(N)nc2=O)C(O)C1O (stereo unspecified)", "parameter.measured": "TGI", "experimental.value": "> 75 µM"}
{"compound": "COc1ccc(/C=C2/CSCC3=C2NC(=S)NC3c2ccc(OC)c(OC)c2OC)c(OC)c1OC (stereo unspecified)", "parameter.measured": "TGI", "experimental.value": "74.4 µM"}
{"compound": "CCCCCCCCCCCCCCCC1=NCCN1", "parameter.measured": "TGI", "experimental.value": "6.89 µM"}
{"compound": "Clc1cccc(-c2sc(-c3ccsc3)cc2Cc2ccsc2)c1", "parameter.measured": "TGI", "experimental.value": "> 10 µM"}
{"compound": "CC(CCC[C@H](C)CO)[C@H]1[C@@H](O)C(O)C2[C@@H]3C[C@@H](O)C4(O)C[C@@H](O)CC[C@]4(C)C3CC[C@@]21C (stereo partly specified)", "parameter.measured": "TGI", "experimental.value": "> 100 µM"}
{"compound": "COC(=O)/C=C\\C(C#N)(C#N)N=Cc1cccc(OC)c1", "parameter.measured": "TGI", "experimental.value": "18.8 µM"}
{"compound": "O=C(CN(C(=O)OC12CC3CC(CC(C3)C1)C2)C(=O)OC12CC3CC(CC(C3)C1)C2)Oc1ccc([N+](=O)[O-])cc1", "parameter.measured": "TGI", "experimental.value": "> 100 µM"}
{"compound": "CCOC(=O)C(=O)Nc1nc2c(OCC)cccc2s1", "parameter.measured": "TGI", "experimental.value": "> 100 µM"}
{"compound": "COc1ccc(C=Nc2c(C(=O)Nc3cccc(Cl)c3C)sc3nc(C)c(C(=O)/C=C/c4ccc(OC)cc4)cc23)cc1", "parameter.measured": "TGI", "experimental.value": "> 50 µM"}
{"compound": "CCCc1n(Cc2ccc3ccccc3c2)cc[n+]1Cc1ccc2ccccc2c1", "parameter.measured": "TGI", "experimental.value": "1.61 µM"}
{"compound": "O=C(Cc1ccccc1F)NC1=C(Cl)C(=O)c2ccccc2C1=O", "parameter.measured": "TGI", "experimental.value": "5.65 µM"}
{"compound": "CSCC[C@@H]1C(=O)N(C)[C@H](C(C)(C)C)N1C(=O)c1ccccc1", "parameter.measured": "TGI", "experimental.value": "> 100 µM"}
{"compound": "COc1cc(OC)cc(-c2ccc(-c3ccc(C(=N)N)cn3)o2)c1", "parameter.measured": "TGI", "experimental.value": "3.46 µM"}
{"compound": "Cc1cc(S(=O)(=O)N2CCNNC2=O)c(S)cc1Cl", "parameter.measured": "TGI", "experimental.value": "> 100 µM"}

====

The molecules listed here are annotated with their TGI.
System: M19-MEL melanoma
Experiment: NCI tumour cell line growth inhibition, 48 h

{"molecule": "COc1cc(/C=C(\\NC(=O)c2ccccc2)c2nc3ccc4c(c3[nH]2)C(=O)c2ccccc2C4=O)cc(OC)c1OC", "TGI": "> 100 µM"}
{"molecule": "CCCCCCCCCCCC(=O)OC[C@H](C[As](=O)(O)O)OC(=O)CCCCCCCCCCC", "TGI": "22 µM"}
{"molecule": "N#CCc1c(-c2ccccc2)n(S(=O)(=O)c2ccccc2)c2ccccc12", "TGI": "> 100 µM"}
{"molecule": "COC(OC)c1cc2c(cc1C=O)OCO2", "TGI": "> 100 µM"}
{"molecule": "COc1ccc(/C(=N\\NC(=O)NN)C(c2ccc(OC)cc2)C2(O)C(=O)Nc3c(Cl)cc(Cl)cc32)cc1 (stereo not drawn)", "TGI": "> 100 µM"}
{"molecule": "O=C(Cc1ccccc1F)NC1=C(Cl)C(=O)c2ccccc2C1=O", "TGI": "12.4 µM"}
{"molecule": "O=C(O)C[C@@H](Cl)[C@H](NC(=O)OCc1ccccc1)C(=O)O", "TGI": "> 100 µM"}
{"molecule": "O=C/C1=C/C2=Cc3ccccc3C=C(/C=C(/C=O)C1)C2", "TGI": "> 100 µM"}
{"molecule": "CC(=O)OC(CC1(C)C(C)CCC23COC(=O)C2=CCCC31)c1ccoc1 (stereo not drawn)", "TGI": "> 100 µM"}
{"molecule": "CC(C)N(O)C(=N)c1ccccc1", "TGI": "> 100 µM"}
{"molecule": "CC(CCC[C@H](C)CO)[C@H]1[C@@H](O)C(O)C2[C@@H]3C[C@@H](O)C4(O)C[C@@H](O)CC[C@]4(C)C3CC[C@@]21C (stereo partly drawn)", "TGI": "> 100 µM"}
{"molecule": "COc1cc(OC)c(C(=O)c2cccs2)cc1N", "TGI": "> 100 µM"}
{"molecule": "CO[C@@H]1C=C[C@@]23c4cc5c(cc4CN(C[C@@H]2O)[C@H]3C1)OCO5", "TGI": "> 100 µM"}
{"molecule": "BrC(Br)=C1C(=C(Br)Br)C(Br)C1Br (stereo not drawn)", "TGI": "1.99 µM"}
{"molecule": "CCC(=O)N1C(=O)OCC1C(C)C (stereo not drawn)", "TGI": "> 100 µM"}
{"molecule": "NCCSc1cc(O)c2c(c1N)C(=O)c1ccccc1C2=O", "TGI": "73.6 µM"}
{"molecule": "N#CC(/C(CCC(=O)Nc1ccc(Cl)cc1)=N/NC(=O)c1cc2ccccc2cc1O)c1ccccc1 (stereo not drawn)", "TGI": "> 100 µM"}
{"molecule": "CNC(=O)NCNC(=O)NC", "TGI": "> 100 µM"}

====

Test system: PC-3 prostate
Assay: NCI tumour cell line growth inhibition, 48 h
The compounds listed here are annotated with their TGI.
parameter.measured: TGI

{"compound": "O=C(CN(C(=O)OC12CC3CC(CC(C3)C1)C2)C(=O)OC12CC3CC(CC(C3)C1)C2)Oc1ccc([N+](=O)[O-])cc1", "tested.on": "PC-3 prostate", "experimental.value": "> 100 µM"}
{"compound": "COc1ccc(C=Nc2c(C(=O)Nc3cccc(Cl)c3C)sc3nc(C)c(C(=O)/C=C/c4ccc(OC)cc4)cc23)cc1", "tested.on": "PC-3 prostate", "experimental.value": "> 50 µM"}
{"compound": "Cn1c(=O)c(Oc2ccc(F)cc2F)cc2cnc(NC(C)(C)CO)nc21", "tested.on": "PC-3 prostate", "experimental.value": "> 25 µM"}
{"compound": "O=C1/C=C/[C@@H](O)[C@@H]2C[C@@H](O)C[C@H]2/C=C/CCC[C@H](CCc2cccc3ccccc23)O1", "tested.on": "PC-3 prostate", "experimental.value": "12 µM"}
{"compound": "C=C1CC2(CC(c3ccccc3Cl)OC(c3ccccc3Cl)C2)OC1=O (stereo not given)", "tested.on": "PC-3 prostate", "experimental.value": "6.84 µM"}
{"compound": "CCCc1cn2c(/C=N/N=C(N)N)c(-c3cccc([N+](=O)[O-])c3)nc2s1", "tested.on": "PC-3 prostate", "experimental.value": "8.19 µM"}
{"compound": "COC1C(O)CC(OC2CC(OC3CC(O[C@@H]4C(=O)c5c(cc6cc(OC7CC(OC8CC(O)C(O)C(C)O8)C(O)C(C)O7)c(C)c(O)c6c5O)CC4[C@H](OC)C(=O)O)OC(C)C3O)OC(C)C2O)OC1C (stereo not given in full)", "tested.on": "PC-3 prostate", "experimental.value": "> 33.3 µM"}
{"compound": "O=c1c2ccccc2[nH]n1Cc1ccccc1", "tested.on": "PC-3 prostate", "experimental.value": "> 100 µM"}
{"compound": "CCCCCCCCCCCCCCCCCc1nccn1CCOCCO", "tested.on": "PC-3 prostate", "experimental.value": "10.7 µg/mL"}
{"compound": "CN(C)CCCN(CCC1CCCCC1)CCC1CCCCC1", "tested.on": "PC-3 prostate", "experimental.value": "17.9 µM"}
{"compound": "COC(=O)c1c(C(=O)OC)c2ccccn2c1-c1cc(OC)c(Br)c(=O)o1", "tested.on": "PC-3 prostate", "experimental.value": "> 100 µM"}
{"compound": "COc1cc(C2CC(c3cccc(Nc4ccnc5cc(Cl)ccc45)c3)=NN2c2ccc(Cl)cc2)cc(OC)c1OC (stereo not given)", "tested.on": "PC-3 prostate", "experimental.value": "> 100 µM"}
{"compound": "CC(=O)O[C@H]([C@H](OC(C)=O)[C@H](C)OC(C)=O)[C@@H](/C=C/[C@@H]1CC=CC(=O)O1)OC(C)=O", "tested.on": "PC-3 prostate", "experimental.value": "> 100 µM"}
{"compound": "O=c1oc2ccc(I)cc2c(=O)n1-c1ccc(F)cc1F", "tested.on": "PC-3 prostate", "experimental.value": "6.94 µM"}
{"compound": "Cc1cc(S(=O)(=O)N2CCNNC2=O)c(S)cc1Cl", "tested.on": "PC-3 prostate", "experimental.value": "> 100 µM"}
{"compound": "CCCNC(=S)N/N=C(\\C)c1ccc(S(=O)(=O)N(C)c2ccccc2)cc1", "tested.on": "PC-3 prostate", "experimental.value": "> 100 µM"}
{"compound": "COc1cc2c(c(OC)c1OC)C(=O)[C@@H]1[C@H]2N1C(=O)NCCCl", "tested.on": "PC-3 prostate", "experimental.value": "> 100 µM"}
{"compound": "O=c1[nH]nc(NCc2ccccc2)c2nnn(Cc3ccccc3)c12", "tested.on": "PC-3 prostate", "experimental.value": "> 100 µM"}
{"compound": "CCCCOC(=O)c1ccc(N)cc1", "tested.on": "PC-3 prostate", "experimental.value": "> 100 µM"}
{"compound": "COc1ccc(C#Cc2ccc(=O)oc2-c2cc(OC)c(OC)c(OC)c2)cc1O", "tested.on": "PC-3 prostate", "experimental.value": "> 100 µM"}
